test.target: recombinant rat MASP2 active protease (amino acids 296-685, C-terminal His Tag) (rat, UniProt Q9JJS8 296-685)
Sequence (Q9JJS8 other isoform, or with tags, fused parts or gaps limits assumed): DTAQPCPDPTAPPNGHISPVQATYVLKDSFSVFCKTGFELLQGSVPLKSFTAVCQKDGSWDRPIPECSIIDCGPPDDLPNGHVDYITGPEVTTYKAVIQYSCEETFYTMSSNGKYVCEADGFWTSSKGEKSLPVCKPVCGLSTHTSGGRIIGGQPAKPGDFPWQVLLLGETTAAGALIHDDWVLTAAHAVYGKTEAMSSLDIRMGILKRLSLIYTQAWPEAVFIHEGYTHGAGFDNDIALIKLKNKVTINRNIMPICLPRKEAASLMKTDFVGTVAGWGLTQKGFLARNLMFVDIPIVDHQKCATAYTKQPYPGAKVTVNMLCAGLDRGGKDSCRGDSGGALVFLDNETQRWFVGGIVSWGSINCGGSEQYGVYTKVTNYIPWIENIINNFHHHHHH
assay.procedure: cell-based or functional assay
Numbered stars: 1 amine (or outer) side, 2 acyl side, 3 side chain; on linkers, the order of the positions; unused ones are H or OH. Bridge positions count the residues as written; N and C are the ends. Square brackets hold non-standard residues; d marks the D form. Ends that are not written are not given here. Pro(cis-4-CF3) = O=C(O)[C@@H]1C[C@H](C(F)(F)F)CN1; cPrCO(1-aminomethyl) = O=C(C1(CN[*:1])CC1)[*:2]; Oic = O=C(O)[C@@H]1C[C@@H]2CCCC[C@@H]2N1; tBuAla = CC(C)(C)C[C@H](N)C(=O)O; Pen = CC(C)(S)[C@H](N)C(=O)O
quantity.kind: rat MASP2 IC50 (nM)
Answer format: numeric, nM implied, no suffix.

Reference set, count: 3
# binder, readout.unit, measured.result
records = [
    ("AICSRS[tBuAla]P[Pro(cis-4-CF3)]ICIPD-NH2 (disulfide 3-11; N-terminus assumed; SMILES CC[C@H](C)[C@H](NC(=O)[C@H](C)N)C(=O)N[C@H]1CSSC[C@@H](C(=O)N[C@H](C(=O)N2CCC[C@H]2C(=O)N[C@@H](CC(=O)O)C(N)=O)[C@@H](C)CC)NC(=O)[C@H]([C@@H](C)CC)NC(=O)[C@@H]2C[C@H](C(F)(F)F)CN2C(=O)[C@@H]2CCCN2C(=O)[C@H](CC(C)(C)C)NC(=O)[C@H](CO)NC(=O)[C@H](CCCNC(=N)N)NC(=O)[C@H](CO)NC1=O) [Example 158: AIC+SRS-((tBu)A)-P-((4-CF3)P)-IC+IPD-NH2]", "nM", 420),
    ("VICSRS[tBuAla]PPI[Pen]IPD-NH2 (disulfide 3-11; N-terminus assumed; SMILES CC[C@H](C)[C@H](NC(=O)[C@@H](N)C(C)C)C(=O)N[C@H]1CSSC(C)(C)[C@@H](C(=O)N[C@H](C(=O)N2CCC[C@H]2C(=O)N[C@@H](CC(=O)O)C(N)=O)[C@@H](C)CC)NC(=O)[C@H]([C@@H](C)CC)NC(=O)[C@@H]2CCCN2C(=O)[C@@H]2CCCN2C(=O)[C@H](CC(C)(C)C)NC(=O)[C@H](CO)NC(=O)[C@H](CCCNC(=N)N)NC(=O)[C@H](CO)NC1=O) [Example 54: VIC+SRS-((tBu)A)-PPI-(Pen)+IPD-NH2]", "nM", 48),
    ("[cPrCO(1-aminomethyl)]ICSRS[tBuAla]PPI[Pen]IPD-NH2 (disulfide 3-11; N-terminus assumed; SMILES CC[C@H](C)[C@@H]1NC(=O)[C@@H]2CCCN2C(=O)[C@@H]2CCCN2C(=O)[C@H](CC(C)(C)C)NC(=O)[C@H](CO)NC(=O)[C@H](CCCNC(=N)N)NC(=O)[C@H](CO)NC(=O)[C@@H](NC(=O)[C@@H](NC(=O)C2(CN)CC2)[C@@H](C)CC)CSSC(C)(C)[C@@H](C(=O)N[C@H](C(=O)N2CCC[C@H]2C(=O)N[C@@H](CC(=O)O)C(N)=O)[C@@H](C)CC)NC1=O) [Example 32: (ACMP)-IC+SRS-((tBu)A)-PPI-(Pen)+IPD-NH2]", "nM", 48),
]

Proceed to the following item.
Quick one: rat MASP2 IC50 for ICSRSLP[Oic]I[Pen]IPD-OH (disulfide 2-10; N-terminus assumed; SMILES CC[C@H](C)[C@H](N)C(=O)N[C@H]1CSSC(C)(C)[C@@H](C(=O)N[C@H](C(=O)N2CCC[C@H]2C(=O)N[C@@H](CC(=O)O)C(=O)O)[C@@H](C)CC)NC(=O)[C@H]([C@@H](C)CC)NC(=O)[C@@H]2C[C@@H]3CCCC[C@@H]3N2C(=O)[C@@H]2CCCN2C(=O)[C@H](CC(C)C)NC(=O)[C@H](CO)NC(=O)[C@H](CCCNC(=N)N)NC(=O)[C@H](CO)NC1=O) [Example 347: IC+SRSLP-(Oic)-I-(Pen)+IPD-OH] ?
1000
